Each entry below carries its recorded Cleavage by FAP.
molecular target: soluble recombinant FAPα (FAPmCD8 fusion protein) (UniProt P01731+Q12884); construct: the extracellular domain of FAPα (amino acids 27 to 760), generating a fusion protein construct, FAPmCD8; extracellular domain of murine CD8α (Genbank M12825), N-terminal 189 amino acids (N); made in house; host or cells: High Five insect cells, recombinant baculovirus (pVL1393; amplified in Sf9); assay: Cleavage of doxorubicin-peptide conjugates by soluble recombinant FAPα (HPLC release of free doxorubicin); assay type: biochemical, human; settings: after 20 h
Sequence (P01731+Q12884 fused): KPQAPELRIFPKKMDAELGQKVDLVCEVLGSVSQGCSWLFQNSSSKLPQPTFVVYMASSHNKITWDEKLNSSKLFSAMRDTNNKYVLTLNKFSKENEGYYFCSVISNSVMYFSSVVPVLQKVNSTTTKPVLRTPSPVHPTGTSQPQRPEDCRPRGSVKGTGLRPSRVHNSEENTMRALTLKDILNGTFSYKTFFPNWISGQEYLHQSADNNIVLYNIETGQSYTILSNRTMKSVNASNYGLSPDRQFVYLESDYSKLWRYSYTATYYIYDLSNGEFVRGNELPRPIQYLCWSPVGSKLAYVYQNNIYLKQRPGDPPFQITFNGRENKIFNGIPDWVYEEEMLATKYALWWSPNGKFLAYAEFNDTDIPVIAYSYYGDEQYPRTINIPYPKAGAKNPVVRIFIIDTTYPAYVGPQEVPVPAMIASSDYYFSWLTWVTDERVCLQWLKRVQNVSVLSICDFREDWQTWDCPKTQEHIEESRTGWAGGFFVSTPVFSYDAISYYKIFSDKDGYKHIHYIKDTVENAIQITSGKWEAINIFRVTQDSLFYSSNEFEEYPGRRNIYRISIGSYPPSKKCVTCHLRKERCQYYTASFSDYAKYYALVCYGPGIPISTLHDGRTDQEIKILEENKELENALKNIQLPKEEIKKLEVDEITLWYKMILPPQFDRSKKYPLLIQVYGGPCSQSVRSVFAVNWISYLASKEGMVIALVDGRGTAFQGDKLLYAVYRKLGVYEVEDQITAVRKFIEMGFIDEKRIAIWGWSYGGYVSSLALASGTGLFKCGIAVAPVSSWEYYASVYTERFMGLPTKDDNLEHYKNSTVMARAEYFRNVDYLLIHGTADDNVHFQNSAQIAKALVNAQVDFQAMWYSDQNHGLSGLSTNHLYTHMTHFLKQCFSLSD

COMPOUND	TARGET_OF_ASSAY	Cleavage by FAP
COc1cccc2c1C(=O)c1c(O)c3c(c(O)c1C2=O)CC(O)(C(=O)CO)CC3OC1CC(NC(=O)C2CCCN2C(=O)CNC(=O)C(C)NC(=O)C2CCCN2C(=O)OCC2c3ccccc3-c3ccccc32)C(O)C(C)O1 (centres unmarked)	soluble recombinant FAPα (FAPmCD8 fusion protein) (UniProt P01731+Q12884)	>95%
COc1cccc2c1C(=O)c1c(O)c3c(c(O)c1C2=O)CC(O)(C(=O)CO)CC3OC1CC(NC(=O)C2CCCN2C(=O)C(N)C2CCCCC2)C(O)C(C)O1 (centres unmarked)	soluble recombinant FAPα (FAPmCD8 fusion protein) (UniProt P01731+Q12884)	>95%
COc1cccc2c1C(=O)c1c(O)c3c(c(O)c1C2=O)C[C@@](O)(C(=O)CO)C[C@@H]3O[C@H]1C[C@H](NC(=O)[C@@H]2CCCN2C(=O)CNC(=O)OCc2ccccc2)[C@H](O)[C@H](C)O1	soluble recombinant FAPα (FAPmCD8 fusion protein) (UniProt P01731+Q12884)	>95%
COc1cccc2c1C(=O)c1c(O)c3c(c(O)c1C2=O)CC(O)(C(=O)CO)CC3OC1CC(NC(=O)C2CCCN2C(=O)CNC(=O)C(C)NC(=O)C2CCCN2C(=O)OCc2ccccc2)C(O)C(C)O1 (centres unmarked)	soluble recombinant FAPα (FAPmCD8 fusion protein) (UniProt P01731+Q12884)	>95%

Ref: patent US6613879B1
